# measurement-target: WEE1 (Homo sapiens, UniProt P30291)
# Construct: purchased Thermo Fisher PR7373A
# Sequence (P30291 whole entry): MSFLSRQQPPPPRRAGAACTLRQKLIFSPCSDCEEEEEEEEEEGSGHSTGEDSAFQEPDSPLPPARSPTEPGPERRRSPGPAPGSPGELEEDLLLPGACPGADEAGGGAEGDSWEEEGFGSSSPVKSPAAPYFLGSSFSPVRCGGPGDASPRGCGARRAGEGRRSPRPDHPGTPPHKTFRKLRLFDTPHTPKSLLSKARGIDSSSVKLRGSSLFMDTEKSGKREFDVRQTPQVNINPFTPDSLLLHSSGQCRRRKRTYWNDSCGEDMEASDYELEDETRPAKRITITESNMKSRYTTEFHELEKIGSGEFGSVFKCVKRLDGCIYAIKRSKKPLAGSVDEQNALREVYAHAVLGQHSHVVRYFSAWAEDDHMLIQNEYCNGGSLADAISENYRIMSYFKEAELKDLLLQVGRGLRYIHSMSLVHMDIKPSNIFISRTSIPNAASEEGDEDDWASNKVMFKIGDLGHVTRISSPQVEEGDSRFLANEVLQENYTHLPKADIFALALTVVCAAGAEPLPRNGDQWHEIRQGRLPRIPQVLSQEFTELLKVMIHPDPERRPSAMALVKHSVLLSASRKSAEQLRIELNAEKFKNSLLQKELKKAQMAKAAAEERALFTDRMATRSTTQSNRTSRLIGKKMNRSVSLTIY
# test-summary: Selectivity versus WEE1 assay (ADP-Glo enzymatic assay)
# Type: biochemical
# experimental-parameters: fold difference in selectivity for PKMYT1 over WEE1; banded
experimental-readout: PKMYT1 vs. WEE1 selectivity

Use these answered entries as a reference point.
[
  {
    "compound": "COCC1(N(C)C(=O)Cn2cc(C)c(Nc3ncc(C(=O)Nc4c(C)ccc(O)c4C)s3)n2)CC1",
    "PKMYT1 vs. WEE1 selectivity": "X (100-<1000 fold)"
  },
  {
    "compound": "Cc1ccc(O)c(C)c1NC(=O)c1cnc(Nc2noc(C)c2C)s1",
    "PKMYT1 vs. WEE1 selectivity": "X (100-<1000 fold)"
  },
  {
    "compound": "Cc1ccc(O)c(C)c1NC(=O)c1cnc(Nc2cn(C)nc2C(F)(F)F)s1",
    "PKMYT1 vs. WEE1 selectivity": "X (100-<1000 fold)"
  },
  {
    "compound": "Cc1ccc(O)c(C)c1NC(=O)c1cnc(Nc2nn(CC(F)F)cc2Br)s1",
    "PKMYT1 vs. WEE1 selectivity": "X (100-<1000 fold)"
  },
  {
    "compound": "Cc1ccc(O)c(C)c1NC(=O)c1cnc(Nc2cccc3ccoc23)s1",
    "PKMYT1 vs. WEE1 selectivity": "Y (1000-5000 fold)"
  },
  {
    "compound": "Cc1ccc(O)c(C)c1NC(=O)c1nnc(Nc2ccn(C)n2)s1",
    "PKMYT1 vs. WEE1 selectivity": "X (100-<1000 fold)"
  }
]

Lab book: PKMYT1 vs. WEE1 selectivity of Cc1ccc(O)c(C)c1NC(=O)c1cnc(Nc2cn(CC(=O)N3CCCC3)nc2C)s1 noted as Y (1000-5000 fold)

Lab book: PKMYT1 vs. WEE1 selectivity of CC(=O)Nc1ccc(Nc2ncc(C(=O)Nc3c(C)ccc(O)c3C)s2)cc1 noted as X (100-<1000 fold)

Lab book: PKMYT1 vs. WEE1 selectivity of Cc1cn(CCF)nc1Nc1ncc(C(=O)Nc2c(C)ccc(O)c2Br)s1 noted as X (100-<1000 fold)

Lab book: PKMYT1 vs. WEE1 selectivity of Cc1ccc(O)c(C)c1NC(=O)c1cnc(Nc2ncccc2Cl)s1 noted as X (100-<1000 fold)

Lab book: PKMYT1 vs. WEE1 selectivity of COc1ccc(F)c(Nc2ncc(C(=O)Nc3c(C)ccc(O)c3C)s2)n1 noted as Y (1000-5000 fold)

Lab book: PKMYT1 vs. WEE1 selectivity of CCN(CC)C(=O)c1cc(Nc2ncc(C(=O)Nc3c(C)ccc(O)c3C)s2)nn1C noted as W (10-<100 fold)

Lab book: PKMYT1 vs. WEE1 selectivity of COC[C@H]1CCCN1C(=O)Cn1cc(C)c(Nc2ncc(C(=O)Nc3c(C)ccc(O)c3C)s2)n1 noted as X (100-<1000 fold)

Lab book: PKMYT1 vs. WEE1 selectivity of Cc1ccc(O)c(C)c1NC(=O)c1cnc(Nc2nn(C)cc2C#N)s1 noted as Y (1000-5000 fold)

Lab book: PKMYT1 vs. WEE1 selectivity of Cc1ccc(O)c(C)c1NC(=O)c1cnc(Nc2nn(C)c3cccc(F)c23)s1 noted as X (100-<1000 fold)

Lab book: PKMYT1 vs. WEE1 selectivity of Cc1ccc(O)c(C)c1NC(=O)c1cnc(Nc2cc(C)n(C(C)C(=O)N3CCCC3)n2)s1 (centres unmarked) noted as W (10-<100 fold)
